# study system: JAK3 enzyme (Homo sapiens, UniProt P52333)
# assay comment: JAK Caliper Enzyme Assay at 1 mM ATP
# Assay type: biochemical
pIC50: −log10 of the molar value.

- compound: "C=CC(=O)N1CC[C@H](Oc2cnc3[nH]cc(C(=O)N[C@@H](C)COC)c3n2)C1"
  study system: "JAK3 enzyme (Homo sapiens, UniProt P52333)"
  pIC50: 6.82
- compound: "C=CC(=O)N1CCN(c2cnc3[nH]cc(C(=O)N[C@H](C)COC)c3n2)CC1"
  study system: "JAK3 enzyme (Homo sapiens, UniProt P52333)"
  pIC50: 7.66
- compound: "C=CC(=O)N1CCC(Nc2cnc3[nH]cc(C(=O)NCc4ccc(CC)c(C)n4)c3n2)CC1"
  study system: "JAK3 enzyme (Homo sapiens, UniProt P52333)"
  pIC50: 7.17
- compound: "C=CC(=O)N1CC[C@@H](Nc2cnc3[nH]cc(C(=O)N[C@H](C)COC)c3n2)[C@@H](OC)C1"
  study system: "JAK3 enzyme (Homo sapiens, UniProt P52333)"
  pIC50: 7.38
- compound: "C=CC(=O)N1CCN(c2cnc3[nH]cc(C(=O)NC(CO)c4ccc(F)cc4)c3n2)CC1(C)C (racemic)"
  study system: "JAK3 enzyme (Homo sapiens, UniProt P52333)"
  pIC50: 6.02
- compound: "C=CC(=O)N1CCN(c2cnc3[nH]cc(C(=O)N[C@H](CC)CC#N)c3n2)C[C@@H]1CC(C)C"
  study system: "JAK3 enzyme (Homo sapiens, UniProt P52333)"
  pIC50: 7.52
- compound: "C=CC(=O)N1C[C@H](Nc2cnc3[nH]cc(C(=O)N[C@@H](C)COC)c3n2)CC[C@@H]1C (single isomer, unassigned)"
  study system: "JAK3 enzyme (Homo sapiens, UniProt P52333)"
  pIC50: 6.39

###

# study system: JAK3 enzyme (Homo sapiens)
# Sequence (P52333 1-1124): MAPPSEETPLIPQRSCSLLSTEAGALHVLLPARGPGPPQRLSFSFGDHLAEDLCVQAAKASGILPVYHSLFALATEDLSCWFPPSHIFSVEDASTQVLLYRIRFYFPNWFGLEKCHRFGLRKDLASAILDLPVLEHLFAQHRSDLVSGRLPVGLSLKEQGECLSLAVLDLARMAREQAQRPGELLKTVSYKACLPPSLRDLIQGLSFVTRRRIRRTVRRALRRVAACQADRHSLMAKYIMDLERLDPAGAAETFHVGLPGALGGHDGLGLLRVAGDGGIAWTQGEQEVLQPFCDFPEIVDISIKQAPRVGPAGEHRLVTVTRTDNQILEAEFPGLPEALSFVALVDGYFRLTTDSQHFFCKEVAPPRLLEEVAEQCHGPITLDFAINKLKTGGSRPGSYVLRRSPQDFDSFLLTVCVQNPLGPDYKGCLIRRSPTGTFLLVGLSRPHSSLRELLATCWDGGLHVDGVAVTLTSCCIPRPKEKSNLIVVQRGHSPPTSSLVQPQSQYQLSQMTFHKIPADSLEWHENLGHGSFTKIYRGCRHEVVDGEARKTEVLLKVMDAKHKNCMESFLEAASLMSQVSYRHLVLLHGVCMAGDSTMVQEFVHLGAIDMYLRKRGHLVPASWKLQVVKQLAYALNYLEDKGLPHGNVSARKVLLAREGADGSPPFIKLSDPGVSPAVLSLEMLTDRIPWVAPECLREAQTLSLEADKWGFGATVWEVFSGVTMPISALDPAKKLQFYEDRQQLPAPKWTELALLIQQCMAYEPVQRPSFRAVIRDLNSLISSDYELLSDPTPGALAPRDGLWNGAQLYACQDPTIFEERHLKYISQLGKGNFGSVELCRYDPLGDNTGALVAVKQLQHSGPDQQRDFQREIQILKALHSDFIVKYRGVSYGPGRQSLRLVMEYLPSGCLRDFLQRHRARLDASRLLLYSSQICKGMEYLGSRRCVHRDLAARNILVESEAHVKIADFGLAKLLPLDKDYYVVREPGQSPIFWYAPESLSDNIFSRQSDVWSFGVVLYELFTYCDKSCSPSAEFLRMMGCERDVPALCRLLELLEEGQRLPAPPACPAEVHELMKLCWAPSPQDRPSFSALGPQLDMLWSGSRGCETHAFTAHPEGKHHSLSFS
# assay comment: JAK Caliper Enzyme Assay at 1 mM ATP
# Type: biochemical
pIC50: −log10 of the molar value.

- compound: "C=CC(=O)N1CCN(c2cnc3[nH]cc(C(=O)NC(CO)c4cccc(F)c4)c3n2)CC1(C)C (racemic)"
  pIC50: 6.20
- compound: "C=CC(=O)N1C[C@@H](Nc2cnc3[nH]cc(C(=O)NCC)c3n2)CC[C@H]1C (racemic) [Example 74]"
  pIC50: 6.75
- compound: "C=CC(=O)N1CCN(c2cnc3[nH]cc(C(=O)N[C@@H]4COC[C@@H]4n4cc(F)cn4)c3n2)CC1(C)C"
  pIC50: 6.06
- compound: "C=CC(=O)N1CC[C@H](Nc2cnc3[nH]cc(C(=O)NCCCC(F)(F)F)c3n2)[C@H](OC)C1"
  pIC50: 7.35
- compound: "C=CC(=O)N1CCC(Oc2cnc3[nH]cc(C(=O)NC45CC(C4)C5)c3n2)CC1"
  pIC50: 7.34
- compound: "C=CC(=O)N1C[C@H](C2CC2)[C@H](Nc2cnc3[nH]cc(C(=O)NCCOC)c3n2)C1"
  pIC50: 6.08
- compound: "C=CC(=O)N1CC[C@@H](Nc2cnc3[nH]cc(C(=O)NCC)c3n2)[C@@H](C)C1 (single isomer, unassigned) [Example 38]"
  pIC50: 7.52
- compound: "C=CC(=O)N1CC[C@@H](Oc2cnc3[nH]cc(C(=O)NCC)c3n2)C1"
  pIC50: 5.88
- compound: "C=CC(=O)N1CCC[C@@H](Oc2cnc3[nH]cc(C(=O)N[C@@H](C)COC)c3n2)C1"
  pIC50: 5.68
- compound: "C=CC(=O)N1CCC(Oc2cnc3[nH]cc(C(=O)NCC4CCC4)c3c2)CC1"
  pIC50: 5.40
- compound: "C=CC(=O)N1CCN(c2cnc3[nH]cc(C(=O)NCC(C)(C)C)c3n2)CC1(C)C"
  pIC50: 6.29
- compound: "C=CC(=O)N1CCC(Oc2cnc3[nH]cc(C(=O)NCC(C)C)c3n2)CC1"
  pIC50: 7.28
- compound: "C=CC(=O)N1C[C@@H](CF)C[C@@H](Nc2ncnc3[nH]ccc23)C1 (single isomer, unassigned)"
  pIC50: 7.42
- compound: "C=CC(=O)N1C[C@H](Oc2cnc3[nH]cc(C(=O)N[C@@H](C)COC)c3n2)CC[C@@H]1C (single isomer, unassigned)"
  pIC50: 7.11
- compound: "C=CC(=O)N1CCN(c2cnc3[nH]cc(C(=O)N[C@H](C)COC)c3n2)CC1(C)C"
  pIC50: 7.25
